This collection of values is drawn from patent US8188111B2.

Readings of melting point for the listed compounds

# example entries with known answers
compound	melting point
CCc1nc2c(NC(=O)C(C)C)nc3ccccc3c2n1CCCCNS(C)(=O)=O [Example 4]	122 to 124 °C
CCOC(=O)Nc1nc2ccccc2c2c1nc(CC)n2CCCCNS(C)(=O)=O [Example 3]	185 to 187 °C
CCc1nc2c(NC(C)=O)nc3ccccc3c2n1CCCCNS(C)(=O)=O [Example 1]	90 to 91 °C
CCc1nc2c(NC(=O)c3ccccc3)nc3ccccc3c2n1CCCCNS(C)(=O)=O [Example 2]	249 to 250 °C

# melting point (compound: CCCOC(=O)Nc1nc2ccccc2c2c1nc(CC)n2CCCCNS(C)(=O)=O [Example 6] ) is 155 to 157 °C

So for CCCCOC(=O)Nc1nc2ccccc2c2c1nc(CC)n2CCCCNS(C)(=O)=O [Example 7] , the logged melting point turned out to be 164 to 166 °C

melting point for CCc1nc2c(NC(=O)C(C)(C)C)nc3ccccc3c2n1CCCCNS(C)(=O)=O [Example 5] is 220 to 221 °C
